These data points were gathered from PubChem BioAssay AID2060897.

Test system: 966289-007-R4-J1-PDC complex spheroid viability
test method notes: Anticancer human tumor 966289-007-R4-J1-PDC patient-derived pancreatic adenocarcinoma cell line growth inhibition [RAS]; active = viability on the fitted dose curve at most 10% of control; inactive = the rest
condition info: second compound 0.316 µM; first compound 0.1 µM
One label from this list, please: true (1) for active, false (0) for inactive

Returns: the outcome recorded for C[C@@H](NC(=O)c1ncnc(N)c1Cl)c1ncc(C(=O)Nc2cc(C(F)(F)F)c(Cl)cn2)s1 + C=CC(=O)N1CCN(c2nc(OCC3CCCN3C)nc3c(F)c(-c4nc(N)cc(C)c4C(F)(F)F)c(Cl)cc23)C(C)C1 in this assay.
false (0)

Identify the outcome logged in this assay for the molecule shown: Nc1ccn(C2OC(CO)C(O)C2(F)F)c(=O)n1 (stereo not given) + C#Cc1c(F)ccc2cc(O)cc(-c3ncc4c(N5CC6CCC(C5)N6)nc(OCC56CCCN5CC(F)C6)nc4c3F)c12
true (1)

Hi, do you know how CC(Nc1ccc2c(c1)OCCn1cc(N3C(=O)OCC3C(F)F)nc1-2)C(N)=O (stereo not given) + C=CC(=O)N1CCN(c2nc(OCC3CCCN3C)nc3c(F)c(-c4nc(N)cc(C)c4C(F)(F)F)c(Cl)cc23)C(C)C1 came out in this test?
false (0)

Just curious, what result did O=C(c1ccc(F)c(F)c1Nc1ccc(I)cc1F)N1CC(O)([C@@H]2CCCCN2)C1 + C#Cc1c(F)ccc2cc(O)cc(-c3ncc4c(N5CC6CCC(C5)N6)nc(OCC56CCCN5CC(F)C6)nc4c3F)c12 get here?
false (0)

Please state the recorded outcome for this molecule: Nc1ccn(C2OC(CO)C(O)C2(F)F)c(=O)n1 (stereo not given) + C=CC(=O)N1CCN(c2nc(OCC3CCCN3C)nc3c(F)c(-c4nc(N)cc(C)c4C(F)(F)F)c(Cl)cc23)C(C)C1
true (1)

###

Test system: 966289-007-R4-J1-PDC complex spheroid viability
test method notes: Anticancer human tumor 966289-007-R4-J1-PDC cell line growth inhibition [RAS];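 also: spheroids exposed to agents for one week before readout; percent viability relative to DMSO vehicle control wells as 100%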
condition info: second compound 0.00949 µM; first compound 1 µM; active compounds read low
Please provide measured viability, T/C for the entries that follow.
Please state the figure in %; there is no need to write the unit.

Could you share which viability, T/C value was measured for Cc1nc(N2CCC3(CC2)COC(C)C3N)c(CO)nc1Sc1ccnc(N)c1Cl (centres undefined) + CCn1c(-c2cccnc2C(C)OC)c2c3cc(ccc31)N1CCOC(CC(NC(=O)C(C(C)C)N(C)C(=O)C3(F)CCN(C(=O)C#CC(C)(C)N(C)C)CC3)C(=O)N3CCCC(N3)C(=O)OCC(C)(C)C2)C1 ?
90.5

// returns reported viability, T/C for input C[C@@H](NC(=O)c1ncnc(N)c1Cl)c1ncc(C(=O)Nc2cc(C(F)(F)F)c(Cl)cn2)s1 + CCn1c(-c2cc(N3CCN(C)CC3)cnc2C(C)OC)c2c3cc(ccc31)-c1csc(n1)CC(NC(=O)C1CC1C)C(=O)N1CCCC(N1)C(=O)OCC(C)(C)C2
69

I'd like to know its viability, T/C. The molecule in question is C[C@@H](NC(=O)c1ncnc(N)c1Cl)c1ncc(C(=O)Nc2cc(C(F)(F)F)c(Cl)cn2)s1 + CCn1c(-c2cccnc2C(C)OC)c2c3cc(ccc31)N1CCOC(CC(NC(=O)C(C(C)C)N(C)C(=O)C3(F)CCN(C(=O)C#CC(C)(C)N(C)C)CC3)C(=O)N3CCCC(N3)C(=O)OCC(C)(C)C2)C1
85

Returns the measured viability, T/C for the input molecule. Input: O=C(c1ccc(F)c(F)c1Nc1ccc(I)cc1F)N1CC(O)([C@@H]2CCCCN2)C1 + CCn1c(-c2cc(N3CCN(C)CC3)cnc2C(C)OC)c2c3cc(ccc31)-c1csc(n1)CC(NC(=O)C1CC1C)C(=O)N1CCCC(N1)C(=O)OCC(C)(C)C2
22.6

Fill in the blank: the reported viability, T/C of CC(Nc1ccc2c(c1)OCCn1cc(N3C(=O)OCC3C(F)F)nc1-2)C(N)=O (centres undefined) + CCn1c(-c2cccnc2C(C)OC)c2c3cc(ccc31)N1CCOC(CC(NC(=O)C(C(C)C)N(C)C(=O)C3(F)CCN(C(=O)C#CC(C)(C)N(C)C)CC3)C(=O)N3CCCC(N3)C(=O)OCC(C)(C)C2)C1 is ____.
92.6

viability, T/C lookup needed for Nc1ccn(C2OC(CO)C(O)C2(F)F)c(=O)n1 (centres undefined) + CCn1c(-c2cccnc2C(C)OC)c2c3cc(ccc31)N1CCOC(CC(NC(=O)C(C(C)C)N(C)C(=O)C3(F)CCN(C(=O)C#CC(C)(C)N(C)C)CC3)C(=O)N3CCCC(N3)C(=O)OCC(C)(C)C2)C1 , thanks.
1.1

Look at this molecule and give its reported viability, T/C. CCC(CC)c1cc(NC2CCC(N)C2)n2nccc2n1 (centres undefined) + CCn1c(-c2cc(N3CCN(C)CC3)cnc2C(C)OC)c2c3cc(ccc31)-c1csc(n1)CC(NC(=O)C1CC1C)C(=O)N1CCCC(N1)C(=O)OCC(C)(C)C2
131

Field request: viability, T/C | item: C=CC(=O)N1CCN(c2nc(OCC3CCCN3C)nc3c(F)c(-c4nc(N)cc(C)c4C(F)(F)F)c(Cl)cc23)C(C)C1 (centres undefined) + CCn1c(-c2cccnc2C(C)OC)c2c3cc(ccc31)N1CCOC(CC(NC(=O)C(C(C)C)N(C)C(=O)C3(F)CCN(C(=O)C#CC(C)(C)N(C)C)CC3)C(=O)N3CCCC(N3)C(=O)OCC(C)(C)C2)C1
84

Look up viability, T/C for this molecule: CC(Nc1ccc2c(c1)OCCn1cc(N3C(=O)OCC3C(F)F)nc1-2)C(N)=O (centres undefined) + CCn1c(-c2cc(N3CCN(C)CC3)cnc2C(C)OC)c2c3cc(ccc31)-c1csc(n1)CC(NC(=O)C1CC1C)C(=O)N1CCCC(N1)C(=O)OCC(C)(C)C2
96
